Tested on: S. epidermidis R005
Assay protocol: Minimum Inhibitory Concentration (MIC), agar dilution, standard strains
Type: cell-based
Condition notes: Table 1; Mueller-Hinton agar, 37° C., 20 hours
Measured parameter: Minimum Inhibitory Concentration (MIC), S. epidermidis R005

Molecule	Obs value
Nc1cc(SCSC2=C(C(=O)O)N3C(=O)[C@@H](NC(=O)CNc4cc(Cl)ccc4Cl)[C@H]3SC2)nc(N)n1 [Example I-5]	0.5 :g/ml
Nc1nc(SCSC2=C(C(=O)O)N3C(=O)[C@@H](NC(=O)CSc4cc(Cl)ccc4Cl)[C@H]3SC2)nc2c1CCC2 [Example I-9]	0.25 :g/ml
Cc1c(N)nc(SCSC2=C(C(=O)O)N3C(=O)[C@@H](NC(=O)CSc4cc(Cl)ccc4Cl)[C@H]3SC2)nc1N [Example I-18]	0.25 :g/ml
Nc1nc(SCSC2=C(C(=O)O)N3C(=O)[C@@H](NC(=O)CSc4cc(Cl)ccc4Cl)[C@H]3SC2)nc2cn[nH]c12 [Example I-13]	0.13 :g/ml
Nc1nc(SCSC2=C(C(=O)O)N3C(=O)[C@@H](NC(=O)CSc4cc(Cl)ccc4Cl)[C@H]3SC2)c2c([n+]1N)CCC2 [Example I-11]	0.063 :g/ml
CN(CC(=O)N[C@@H]1C(=O)N2C(C(=O)O)=C(SCSc3cc(N)nc(N)n3)CS[C@H]12)c1cc(Cl)ccc1Cl [Example I-6]	0.5 :g/ml

---

# key: entry, value: Minimum Inhibitory Concentration (MIC), S. aureus 77
Tested on: S. aureus 77
Assay protocol: Minimum Inhibitory Concentration (MIC), agar dilution, standard strains
Type: cell-based, Staphylococcus aureus
Condition notes: Table 1; Mueller-Hinton agar, 37° C., 20 hours
Measured parameter: Minimum Inhibitory Concentration (MIC), S. aureus 77

Molecule	Obs value
Nc1nc(SCSC2=C(C(=O)O)N3C(=O)[C@@H](NC(=O)CSc4cc(Cl)ccc4Cl)[C@H]3SC2)nc2cn[nH]c12	0.13 :g/ml
Nc1cc[n+](N)c(SCSC2=C(C(=O)O)N3C(=O)[C@@H](NC(=O)CSc4cc(Cl)ccc4Cl)[C@H]3SC2)n1	0.13 :g/ml
Cc1c(N)nc([S+]([O-])CSC2=C(C(=O)O)N3C(=O)[C@@H](NC(=O)CSc4cc(Cl)ccc4Cl)[C@H]3SC2)[n+](N)c1N (stereo partly drawn)	8 :g/ml

---

System: Staphylococcus aureus giorgio
Assay protocol: Minimum Inhibitory Concentration (MIC), agar dilution, standard strains
Type: cell-based
Condition notes: Table 2; Mueller-Hinton agar, 37° C., 20 hours
# key: entry, value: Minimum Inhibitory Concentration (MIC), S. aureus giorgio
Measured parameter: Minimum Inhibitory Concentration (MIC), S. aureus giorgio

Molecule	Obs value
C[n+]1c(SCSC2=C(C(=O)O)N3C(=O)[C@@H](NC(=O)CSc4cc(Cl)nc(Cl)c4)[C@H]3SC2)cc(N)nc1N	0.031 :g/ml
CN[C@H](CC(C)C)C(=O)N[C@H]1C(=O)N[C@@H](CC(N)=O)C(=O)N[C@H]2C(=O)N[C@H]3C(=O)N[C@H](C(=O)N[C@H](C(=O)O)c4cc(O)cc(O)c4-c4cc3ccc4O)[C@H](O)c3ccc(c(Cl)c3)Oc3cc2cc(c3O[C@@H]2O[C@H](CO)[C@@H](O)[C@H](O)[C@H]2O[C@H]2C[C@](C)(N)[C@H](O)[C@H](C)O2)Oc2ccc(cc2Cl)[C@H]1O [Vancomycin, vancomycin, reference compound]	1 :g/ml
Cn1c(N)n[n+]2c(SCSC3=C(C(=O)O)N4C(=O)[C@@H](NC(=O)CSc5cc(Cl)nc(Cl)c5)[C@H]4SC3)nc(N)cc12	0.031 :g/ml
Nc1cc(SCSC2=C(C(=O)O)N3C(=O)[C@@H](NC(=O)CSc4cc(Cl)nc(Cl)c4)[C@H]3SC2)nc(N)n1	0.016 :g/ml
CCSc1nc(C)cc(SCSC2=C(C(=O)O)N3C(=O)[C@@H](NC(=O)CSc4cc(Cl)nc(Cl)c4)[C@H]3SC2)n1	0.031 :g/ml
Nc1nc(SCSC2=C(C(=O)O)N3C(=O)[C@@H](NC(=O)CSc4cc(Cl)nc(Cl)c4)[C@H]3SC2)nc2[nH]ncc12	0.016 :g/ml
Nc1nc(O)cc(SCSC2=C(C(=O)O)N3C(=O)[C@@H](NC(=O)CSc4cc(Cl)nc(Cl)c4)[C@H]3SC2)n1	0.031 :g/ml
Nc1cc(N)nc(SCSC2=C(C(=O)O)N3C(=O)[C@@H](NC(=O)CSc4cc(Cl)nc(Cl)c4)[C@H]3SC2)n1	0.016 :g/ml
O=C(CSc1cc(Cl)nc(Cl)c1)N[C@@H]1C(=O)N2C(C(=O)O)=C(SCSc3ncnc4[nH]ncc34)CS[C@H]12	0.13 :g/ml
O=C(CSc1cc(Cl)nc(Cl)c1)N[C@@H]1C(=O)N2C(C(=O)O)=C(SCSc3nc(O)cc(NCCO)n3)CS[C@H]12	0.13 :g/ml

---

# key: entry, value: Minimum Inhibitory Concentration (MIC), S. epidermidis R005
Tested on: S. epidermidis R005
Assay protocol: Minimum Inhibitory Concentration (MIC), agar dilution, standard strains
Assay type: cell-based
Condition notes: Table 1; Mueller-Hinton agar, 37° C., 20 hours
Experimental: Minimum Inhibitory Concentration (MIC) The effectiveness of the compound according to the present invention was determined by obtaining Minimum Inhibitory Concentration (MIC) of the compounds prepared by the above Examples (I-1 to I-33) and vancomycin, which is the known compound having a potent activity against gram-positive strains, as the control drug against the standard strains. […]
Measured parameter: Minimum Inhibitory Concentration (MIC), S. epidermidis R005

Molecule	Study target	Obs value
Cn1c(N)n[n+]2c(SCSC3=C(C(=O)O)N4C(=O)[C@@H](NC(=O)CSc5cc(Cl)ccc5Cl)[C@H]4SC3)nc(N)cc12 [Example I-14]	S. epidermidis R005	0.13 :g/ml
Nc1cc(N)[n+](N)c(SCSC2=C(C(=O)O)N3C(=O)[C@@H](NC(=O)CSc4cc(Cl)ccc4Cl)[C@H]3SC2)n1 [Example I-10]	S. epidermidis R005	0.13 :g/ml
Cc1c(N)nc([S+]([O-])CSC2=C(C(=O)O)N3C(=O)[C@@H](NC(=O)CSc4cc(Cl)ccc4Cl)[C@H]3SC2)[n+](N)c1N (stereo partly drawn) [Example I-23]	S. epidermidis R005	8 :g/ml
Nc1cc[n+](N)c(SCSC2=C(C(=O)O)N3C(=O)[C@@H](NC(=O)CSc4cc(Cl)ccc4Cl)[C@H]3SC2)n1 [Example I-7]	S. epidermidis R005	0.063 :g/ml
CNc1[n+](C)c(N)nc(SCSC2=C(C(=O)O)N3C(=O)[C@@H](NC(=O)CSc4cc(Cl)ccc4Cl)[C@H]3SC2)[n+]1N [Example I-19]	S. epidermidis R005	2 :g/ml
CCSc1nc(C)cc(SCSC2=C(C(=O)O)N3C(=O)[C@@H](NC(=O)CSc4cc(Cl)ccc4Cl)[C@H]3SC2)n1 [Example I-12]	S. epidermidis R005	0.5 :g/ml

---

Tested on: S. aureus 241
Assay protocol: Minimum Inhibitory Concentration (MIC), agar dilution, standard strains
Assay type: cell-based, Staphylococcus aureus
Condition notes: Table 1; Mueller-Hinton agar, 37° C., 20 hours
Measured parameter: Minimum Inhibitory Concentration (MIC), S. aureus 241

Molecule	Obs value
Nc1cc(N)[n+](N)c(SCSC2=C(C(=O)O)N3C(=O)[C@@H](NC(=O)CSc4cc(Cl)ccc4Cl)[C@H]3SC2)n1	4 :g/ml
Nc1nc(SCSC2=C(C(=O)O)N3C(=O)[C@@H](NC(=O)CSc4cc(Cl)ccc4Cl)[C@H]3SC2)nc2c1CCC2	4 :g/ml
CNc1[n+](C)c(N)nc(SCSC2=C(C(=O)O)N3C(=O)[C@@H](NC(=O)CSc4cc(Cl)ccc4Cl)[C@H]3SC2)[n+]1N	32 :g/ml
Cn1c(N)n[n+]2c(SCSC3=C(C(=O)O)N4C(=O)[C@@H](NC(=O)CSc5cc(Cl)ccc5Cl)[C@H]4SC3)nc(N)cc12	2 :g/ml
Cc1c(N)nc(SCSC2=C(C(=O)O)N3C(=O)[C@@H](NC(=O)CSc4cc(Cl)ccc4Cl)[C@H]3SC2)nc1N	4 :g/ml
Cc1c(N)nc([S+]([O-])CSC2=C(C(=O)O)N3C(=O)[C@@H](NC(=O)CSc4cc(Cl)ccc4Cl)[C@H]3SC2)[n+](N)c1N (stereo partly drawn)	>32 :g/ml

---

System: S. aureus 77
Assay protocol: Minimum Inhibitory Concentration (MIC), agar dilution, standard strains
Assay type: cell-based, Staphylococcus aureus
Condition notes: Table 1; Mueller-Hinton agar, 37° C., 20 hours
# key: entry, value: Minimum Inhibitory Concentration (MIC), S. aureus 77
Measured parameter: Minimum Inhibitory Concentration (MIC), S. aureus 77

Compound	Study target	Obs value
Nc1nc(SCSC2=C(C(=O)O)N3C(=O)[C@@H](NC(=O)CSc4cc(Cl)ccc4Cl)[C@H]3SC2)c2c([n+]1N)CCC2	S. aureus 77	0.063 :g/ml
Nc1nc(SCSC2=C(C(=O)O)N3C(=O)[C@@H](NC(=O)CSc4cc(Cl)ccc4Cl)[C@H]3SC2)nc2c1CCC2	S. aureus 77	0.25 :g/ml
Nc1cc(N)[n+](N)c(SCSC2=C(C(=O)O)N3C(=O)[C@@H](NC(=O)CSc4cc(Cl)ccc4Cl)[C@H]3SC2)n1	S. aureus 77	0.25 :g/ml
CCSc1nc(C)cc(SCSC2=C(C(=O)O)N3C(=O)[C@@H](NC(=O)CSc4cc(Cl)ccc4Cl)[C@H]3SC2)n1	S. aureus 77	0.5 :g/ml
Cn1c(N)n[n+]2c(SCSC3=C(C(=O)O)N4C(=O)[C@@H](NC(=O)CSc5cc(Cl)ccc5Cl)[C@H]4SC3)nc(N)cc12	S. aureus 77	0.25 :g/ml
Nc1cc(SCSC2=C(C(=O)O)N3C(=O)[C@@H](NC(=O)CNc4cc(Cl)ccc4Cl)[C@H]3SC2)nc(N)n1	S. aureus 77	0.5 :g/ml
